# ASSAYED TARGET: recombinant soluble homotrimeric HA of A/Anhui/1/05 (H5N1) (Influenza A virus A/Anhui/1/2005(H5N1))
# METHOD DESCRIPTION: HA microarray, BCC supernatant
# MEASUREMENT PARAMETERS: remark: other sources report otherwise
binders and their reported Trimeric HA Binding: RLU
Report the figure in RLU without appending any unit label.

| BINDER | NUMERIC READOUT |
| --- | --- |
| TCN-523 (5248_A17) (antibody, V domains shown) VH: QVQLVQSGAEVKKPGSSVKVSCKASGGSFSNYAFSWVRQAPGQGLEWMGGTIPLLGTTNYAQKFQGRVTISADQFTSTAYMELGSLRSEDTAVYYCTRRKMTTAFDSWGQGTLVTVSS VL: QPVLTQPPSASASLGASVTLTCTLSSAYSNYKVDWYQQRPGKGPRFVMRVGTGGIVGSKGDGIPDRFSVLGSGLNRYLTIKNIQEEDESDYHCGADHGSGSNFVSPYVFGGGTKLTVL | 5700 |
| TCN-537 (3194_D21) (antibody, V domains shown) VH: QVQLQQWGSGLLKPSETLSLTCAVYGGSFRDDYWTWIRQPPGKGLEWIGEINHSGRTNYNPSLKSRVTISVDTSLKQFSLKVISVTAADTAVYYCARGTSHVSRYFDWLPPTNWFDPWGQGTQVTVSS VL: DIVLTQSPGTLSLSPGERATLSCRASQSVSSSYLAWYQQKPGQAPRLVMYGAATRATGIPDRFSGSGSGPDFTLTISRLEPEDFAMYYCQQYGNSPITFGQGTRLEIK | 335 |
| TCN-528 (5087_P17) (antibody, V domains shown) VH: QVQLVQSGSEVKKPGASVKVSCKASGYTFTNYDINWIRQAPGQGLEWMGWINPNSGTTGSAQRFQGRVTITVDTSITTVYMELSSLRSDDTAIYYCARGRELLRLQHFLTDSQSERRDCFDPWGQGTLVTVSS VL: DIQMTQSPSSLSASVGDRVTITCRANQDIGIYLNWYQQNPGKVPKLLLHGASSLQGGVPSRFSASGSGTDFTLTIHSLQPEDLATYYCQQSRRLPYTFGQGTRVELK | 49800 |

Now for the binder whose Trimeric HA Binding: RLU we want.
Asked: What measured Trimeric HA Binding: RLU goes with TCN-538 (3206_O17) (antibody, V domains shown) VH: QITLKESGPTLVKPTQTLTLTCVFSGFSLSITGVRVGWIRQPPGKALEWLALISWDDEKHYSPSLQSRLTITKDTSKNQVVLTMTNLDPVDTATYYCARSTDRGHVLRYFGWMLPGDAFDVWGQGTMVTVSS VL: DIVMTQSPDFLPVSLGERATINCKSSQRVLYSSNNKNYLAWYQLKPGQPPKLIIYWASTRESGVPDRFSGSGSGTEFTLTISSLQAEDVAVYYCQQYYSRPYTFGQGTKLEIK ?
Given back: 689

Origin of measurements: patent US20150086555A1
